assay-comment: Fluorescence property of compound in THF assessed as life time
Type: physicochemical
readout-label: Activity (nanoseconds)

Recorded results for 3 molecules are shown here.
[[record]]
molecule = "COC(=O)[C@H](Cc1ccc(O[B@@-]23n4c5c6ccc(I)cc6c4N=c4c6ccc(I)cc6c(n42)=NC2=[N+]3C(=N5)c3ccc(I)cc32)cc1)NC(=O)OC(C)(C)C"
unit_abbreviation = "nanoseconds"
numeric_result = 0.3

[[record]]
molecule = "CCSc1ccc2c(c1)C1=Nc3c4ccc(SCC)cc4c4n3[B@-]3(Oc5ccc(C[C@H](N)C(=O)OC)cc5)n5c(c6cc(SCC)ccc6c5=N4)=NC2=[N+]13"
unit_abbreviation = "nanoseconds"
numeric_result = 1.71

[[record]]
molecule = "Cl[B-]12n3c4c5ccc(I)cc5c3N=c3c5ccc(I)cc5c(n31)=NC1=[N+]2C(=N4)c2ccc(I)cc21 (configuration not stated)"
unit_abbreviation = "nanoseconds"
numeric_result = 0.3


P = CCSc1ccc2c(c1)C1=Nc3c4ccc(SCC)cc4c4n3[B-]3(OCc5ccc6c(c5)OCCOCCOCCOCCOCCO6)n5c(c6cc(SCC)ccc6c5=N4)=NC2=[N+]13 (configuration not stated)
Q = Ic1ccc2c(c1)C1=[N+]3C2=Nc2c4ccc(I)cc4c4n2[B@-]3(OCc2ccc3c(c2)OCCOCCOCCOCCOCCO3)n2c(c3cc(I)ccc3c2=N4)=N1
Between P and Q , which one shows the smaller Activity number? I would appreciate it if you answered with the label of your choice. Q

A = CCSc1ccc2c(c1)C1=Nc3c4ccc(SCC)cc4c4n3[B-]3(Oc5ccc(C[C@H](NC(=O)OC(C)(C)C)C(=O)OC)cc5)n5c(c6cc(SCC)ccc6c5=N4)=NC2=[N+]13 (some centres not stated)
B = COC(=O)[C@@H](N)Cc1ccc(O[B-]23n4c5c6ccc(I)cc6c4N=c4c6ccc(I)cc6c(n42)=NC2=[N+]3C(=N5)c3ccc(I)cc32)cc1 (some centres not stated)
Between A and B , which one shows the smaller Activity number? I would appreciate it if you answered with the label of your choice. B
